compounds and their reported solubility
Assay: physchem
Conditions: pH 6.1, Solubility Conc.
Positions of bridges follow the written chain, without caps; N, C: chain ends. Non-standard residues stand in square brackets, D forms with d. Residues, ends and D or L forms follow the SMILES beside them. Groups on a side chain read outwards from the residue. *: point of attachment. Lys(CH2CO2H)2 = N[C@@H](CCCCN(CC(=O)O)CC(=O)O)C(=O)O; C18 diacid = O=C(O)CCCCCCCCCCCCCCCCC(=O)*; C16 diacid = O=C(O)CCCCCCCCCCCCCCC(=O)*; hCys = N[C@@H](CCS)C(=O)O; Orn = NCCC[C@H](N)C(=O)O; AEEA = NCCOCCOCC(=O)O

[[record]]
compound = "CC(=O)N[C@H]1CCC(=O)NCCC[C@@H](C(=O)N2CCC[C@H]2C(=O)N2CCC[C@H]2C(=O)N[C@@H](CC(=O)O)C(=O)N[C@@H](CCCCN(CC(=O)O)CC(=O)O)C(=O)N[C@@H](CCCCNC(=O)COCCOCCNC(=O)CCCCCCCCCCCCCCCCC(=O)O)C(N)=O)NC(=O)[C@H](Cc2c[nH]c3ccccc23)NC(=O)[C@H](CCCNC(=N)N)NC(=O)[C@@H](Cc2ccccc2)NC(=O)[C@H](Cc2c[nH]cn2)NC1=O [Example 26] (Ac-EH[dF]RW[Orn]PPD[Lys(CH2CO2H)2]K([AEEA-C18 diacid])-NH2; lactam 1-6)"
measured_attribute = "solubility"
experimental_value = "474 µM"

[[record]]
compound = "CC(=O)N[C@H]1CCSSC[C@@H](C(=O)N2CCC[C@H]2C(=O)N2CCC[C@H]2C(=O)N[C@@H](CO)C(=O)N[C@@H](CCC(=O)O)C(=O)N[C@@H](CCCCN(CC(=O)O)CC(=O)O)C(=O)N[C@@H](CCCCNC(=O)COCCOCCNC(=O)CCCCCCCCCCCCCCC(=O)O)C(N)=O)NC(=O)[C@H](Cc2c[nH]c3ccccc23)NC(=O)[C@H](CCCNC(=N)N)NC(=O)[C@@H](Cc2ccccc2)NC(=O)[C@H](Cc2c[nH]cn2)NC1=O [Example 70] (Ac-[hCys]H[dF]RWCPPSE[Lys(CH2CO2H)2]K([AEEA-C16 diacid])-NH2; disulfide 1-6)"
measured_attribute = "solubility"
experimental_value = "429 µM"


Next, consider the following compound.
Dear colleague, I am looking for the recorded solubility of the following compound: CC(=O)N[C@H]1CCSSC[C@@H](C(=O)N2CCC[C@H]2C(=O)N2CCC[C@H]2C(=O)N[C@@H](CCCCN)C(=O)N[C@@H](CCC(=O)O)C(=O)N[C@@H](CCCCN(CC(=O)O)CC(=O)O)C(=O)N[C@@H](CCCCNC(=O)COCCOCCNC(=O)CCCCCCCCCCCCCCC(=O)O)C(N)=O)NC(=O)[C@H](Cc2c[nH]c3ccccc23)NC(=O)[C@H](CCCNC(=N)N)NC(=O)[C@@H](Cc2ccccc2)NC(=O)[C@H](Cc2c[nH]cn2)NC1=O [Example 5] (Ac-[hCys]H[dF]RWCPPKE[Lys(CH2CO2H)2]K([AEEA-C16 diacid])-NH2; disulfide 1-6)
200 µM

---

Test: physchem
Details: pH 7.9, Solubility Conc.
Positions of bridges follow the written chain, without caps; N, C: chain ends. Non-standard residues stand in square brackets, D forms with d. Residues, ends and D or L forms follow the SMILES beside them. Groups on a side chain read outwards from the residue. *: point of attachment. Lys(CH2CO2H)2 = N[C@@H](CCCCN(CC(=O)O)CC(=O)O)C(=O)O; C16 diacid = O=C(O)CCCCCCCCCCCCCCC(=O)*; Orn = NCCC[C@H](N)C(=O)O; AEEA = NCCOCCOCC(=O)O
MEASURED ATTRIBUTE: solubility (µM)
Supply the numeric figure in µM, leaving out any unit text.

Given CC(=O)N[C@H]1CCC(=O)NCCC[C@@H](C(=O)N2CCC[C@H]2C(=O)N2CCC[C@H]2C(=O)N[C@@H](CC(=O)O)C(=O)N[C@@H](CCCCN(CC(=O)O)CC(=O)O)C(=O)N[C@@H](CCCCNC(=O)COCCOCCNC(=O)CCCCCCCCCCCCCCC(=O)O)C(N)=O)NC(=O)[C@H](Cc2c[nH]c3ccccc23)NC(=O)[C@H](CCCNC(=N)N)NC(=O)[C@@H](Cc2ccccc2)NC(=O)[C@H](Cc2c[nH]cn2)NC1=O [Example 13] (Ac-EH[dF]RW[Orn]PPD[Lys(CH2CO2H)2]K([AEEA-C16 diacid])-NH2; lactam 1-6) , state its recorded solubility.
493

Look up solubility: CC(=O)N[C@H]1CCC(=O)NCCC[C@@H](C(=O)N2CCC[C@H]2C(=O)N2CCC[C@H]2C(=O)N[C@@H](CCCNC(=N)N)C(=O)N[C@@H](CC(=O)O)C(=O)N[C@@H](CCCCN(CC(=O)O)CC(=O)O)C(=O)N[C@@H](CCCCNC(=O)COCCOCCNC(=O)CCCCCCCCCCCCCCC(=O)O)C(N)=O)NC(=O)[C@H](Cc2c[nH]c3ccccc23)NC(=O)[C@H](CCCNC(=N)N)NC(=O)[C@@H](Cc2ccccc2)NC(=O)[C@H](Cc2cnc[nH]2)NC1=O [Example 18] (Ac-EH[dF]RW[Orn]PPRD[Lys(CH2CO2H)2]K([AEEA-C16 diacid])-NH2; lactam 1-6)
474

---

Test: physchem
Details: pH 6, Solubility Conc.
Protocol: From a stock solution in vehicle, either H2O or 10 mM phosphate, containing 1 mg (as weighed) compound per ml, 8-11 aliquots are withdrawn and pH-adjusted individually with HCl/NaOH, to cover the whole pH range.
Positions of bridges follow the written chain, without caps; N, C: chain ends. Non-standard residues stand in square brackets, D forms with d. Residues, ends and D or L forms follow the SMILES beside them. Groups on a side chain read outwards from the residue. *: point of attachment. Lys(CH2CO2H)2 = N[C@@H](CCCCN(CC(=O)O)CC(=O)O)C(=O)O; C16 diacid = O=C(O)CCCCCCCCCCCCCCC(=O)*; hCys = N[C@@H](CCS)C(=O)O; AEEA = NCCOCCOCC(=O)O
MEASURED ATTRIBUTE: solubility (µM)
Reply with just the number (in µM).

For CC(=O)N[C@H]1CCSSC[C@@H](C(=O)N[C@@H](CO)C(=O)N2CCC[C@H]2C(=O)N[C@@H](CCCCN)C(=O)N[C@@H](CCC(=O)O)C(=O)N[C@@H](CCCCN(CC(=O)O)CC(=O)O)C(=O)N[C@@H](CCCCNC(=O)COCCOCCNC(=O)CCCCCCCCCCCCCCC(=O)O)C(N)=O)NC(=O)[C@H](Cc2c[nH]c3ccccc23)NC(=O)[C@H](CCCNC(=N)N)NC(=O)[C@@H](Cc2ccccc2)NC(=O)[C@H](Cc2c[nH]cn2)NC1=O [Example 60] (Ac-[hCys]H[dF]RWCSPKE[Lys(CH2CO2H)2]K([AEEA-C16 diacid])-NH2; disulfide 1-6) , what is its reported solubility?
133

---

Assay: physchem
Settings: pH 4.7, Solubility Conc.
Positions of bridges follow the written chain, without caps; N, C: chain ends. Non-standard residues stand in square brackets, D forms with d. Residues, ends and D or L forms follow the SMILES beside them. *: point of attachment. Lys(CH2CO2H)2 = N[C@@H](CCCCN(CC(=O)O)CC(=O)O)C(=O)O; X1 = O=C(O)CCCCCCCCCCCCCCCCC(=O)NCCOCCOCCN*; Dab = NCC[C@H](N)C(=O)O
MEASURED ATTRIBUTE: solubility (µM)
Write the answer as a number in µM, unit excluded.

Quick one: solubility of CC(=O)N[C@H]1CCNC(=O)C[C@@H](C(=O)N2CCC[C@H]2C(=O)N2CCC[C@H]2C(=O)N[C@@H](CCCNC(=N)N)C(=O)N[C@@H](CCC(=O)O)C(=O)N[C@@H](CCCCN(CC(=O)O)CC(=O)O)C(=O)N[C@@H](CO)C(=O)N[C@@H](CO)C(=O)NCCOCCOCCNC(=O)CCCCCCCCCCCCCCCCC(=O)O)NC(=O)[C@H](Cc2c[nH]c3ccccc23)NC(=O)[C@H](CCCNC(=N)N)NC(=O)[C@@H](Cc2ccccc2)NC(=O)[C@H](Cc2c[nH]cn2)NC1=O [Example 9] (Ac-[Dab]H[dF]RWDPPRE[Lys(CH2CO2H)2]SS-X1; lactam 1-6) ?
26

---

Target: MC1 receptor (Homo sapiens, UniProt Q01726)
Sequence (Q01726 whole entry): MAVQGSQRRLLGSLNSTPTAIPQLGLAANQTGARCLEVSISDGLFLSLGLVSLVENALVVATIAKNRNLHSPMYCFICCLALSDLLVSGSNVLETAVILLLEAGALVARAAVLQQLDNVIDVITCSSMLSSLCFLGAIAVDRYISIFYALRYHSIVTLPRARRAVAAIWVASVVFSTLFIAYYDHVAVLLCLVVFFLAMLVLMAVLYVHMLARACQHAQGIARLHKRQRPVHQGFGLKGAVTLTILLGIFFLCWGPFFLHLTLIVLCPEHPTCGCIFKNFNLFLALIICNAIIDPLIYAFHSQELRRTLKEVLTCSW
pKi: −log10 of the molar value. Positions of bridges follow the written chain, without caps; N, C: chain ends. Non-standard residues stand in square brackets, D forms with d. Residues, ends and D or L forms follow the SMILES beside them. Groups on a side chain read outwards from the residue. *: point of attachment. Lys(CH2CO2H)2 = N[C@@H](CCCCN(CC(=O)O)CC(=O)O)C(=O)O; X1 = O=C(O)CCCCCCCCCCCCCCCCC(=O)NCCOCCOCCN*; C17 diacid = O=C(O)CCCCCCCCCCCCCCCC(=O)*; Dab = NCC[C@H](N)C(=O)O; AEEA = NCCOCCOCC(=O)O
Catalogue of pKi values

[[record]]
molecule = "CC(=O)N[C@H]1CCNC(=O)C[C@@H](C(=O)N2CCC[C@H]2C(=O)N2CCC[C@H]2C(=O)N[C@@H](CCCNC(=N)N)C(=O)N[C@@H](CCC(=O)O)C(=O)N[C@@H](CCCCN(CC(=O)O)CC(=O)O)C(=O)N[C@@H](CO)C(=O)N[C@@H](CO)C(=O)NCCOCCOCCNC(=O)CCCCCCCCCCCCCCCCC(=O)O)NC(=O)[C@H](Cc2c[nH]c3ccccc23)NC(=O)[C@H](CCCNC(=N)N)NC(=O)[C@@H](Cc2ccccc2)NC(=O)[C@H](Cc2c[nH]cn2)NC1=O [Example 9] (Ac-[Dab]H[dF]RWDPPRE[Lys(CH2CO2H)2]SS-X1; lactam 1-6)"
measurement_target = "MC1 receptor (Homo sapiens, UniProt Q01726)"
experimental_value = "< 5.00"


Checklist item: pKi tested on MC1 receptor (Homo sapiens, UniProt Q01726), entry CC(=O)N[C@H]1CCCCNC(=O)C[C@@H](C(=O)N2CCC[C@H]2C(=O)N2CCC[C@H]2C(=O)N[C@@H](Cc2c[nH]cn2)C(=O)N[C@@H](CCC(=O)O)C(=O)N[C@@H](CCCCN(CC(=O)O)CC(=O)O)C(=O)N[C@@H](CCCCNC(=O)COCCOCCNC(=O)CCCCCCCCCCCCCCCC(=O)O)C(N)=O)NC(=O)[C@H](Cc2c[nH]c3ccccc23)NC(=O)[C@H](CCCNC(=N)N)NC(=O)[C@@H](Cc2ccccc2)NC(=O)[C@H](Cc2c[nH]cn2)NC1=O [Example 44] (Ac-KH[dF]RWDPPHE[Lys(CH2CO2H)2]K([AEEA-C17 diacid])-NH2; lactam 1-6) , value?
< 5.00

Reference source: patent US20130012432A1
